# system: T1, soluble form of GPC3 core protein (human, UniProt P51654 25-563)
# T1 construct: not shown: His tag added to the C-terminus
# T1 sequence (P51654 25-563 S495A/S509A, form in doubt): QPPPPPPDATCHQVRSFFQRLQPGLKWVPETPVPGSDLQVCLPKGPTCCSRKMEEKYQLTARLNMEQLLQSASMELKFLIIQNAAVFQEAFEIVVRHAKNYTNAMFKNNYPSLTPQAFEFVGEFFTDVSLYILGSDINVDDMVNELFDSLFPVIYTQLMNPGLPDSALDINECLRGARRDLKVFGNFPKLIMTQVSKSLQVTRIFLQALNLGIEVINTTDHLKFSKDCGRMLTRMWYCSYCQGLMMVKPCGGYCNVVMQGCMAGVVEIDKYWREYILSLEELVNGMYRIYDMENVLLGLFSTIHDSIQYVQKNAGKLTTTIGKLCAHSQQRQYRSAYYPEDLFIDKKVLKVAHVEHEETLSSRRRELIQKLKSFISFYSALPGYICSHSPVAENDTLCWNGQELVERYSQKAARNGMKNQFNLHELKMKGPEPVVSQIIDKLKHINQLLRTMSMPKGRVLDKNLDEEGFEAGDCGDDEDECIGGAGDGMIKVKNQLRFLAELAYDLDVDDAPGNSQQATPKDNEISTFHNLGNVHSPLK
# assayOverview: competitive ELISA on coated soluble GPC3 core protein; labelled competitor biotin-M18D4;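 note: Biotin-labelled antibody added as 10 µL at 10 µg/mL for 1 h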
Attribute: Inhibition of the binding of indicated biotin-Mab to sGPC3 core (%)
Supply the numeric figure in %, leaving out any unit text.

Examples from the recorded data:
# binder, measurement
records = [
    ("L9G11 (antibody, V domains shown, Mouse monoclonal from hybridoma) VH: QVQLQQPGAELVKPGASVKLSCKASGYTFTSYWMHWVKQRPGQGLEWIGTIDPSDSETHYNLQFKDTATLTVDKSSSTAYMQLSSLTSEDSAVYYCIRGAFYSSYSYWAWFAYWGQGTLVTVSA VL: DIVLTQSPTSLAVSLGQSVTISCRASESVEYYGTSLMQWYQQKPGQPPKLLIYGASNVESGVPARFSGSGSGTDFSLNIHPVEEDDIAMYFCQQSRKVPYTFGSGTKLEIK", 15.7),
    ("M1E7 (antibody, human IgG1, kappa, V domains shown, Mouse monoclonal from hybridoma; also called M1E07) VH: EVQLQQSGPELVKPGASVKISCKASGYSFTGYYMHWVKQSPEKSLEWIGEINPSTGGTTYNQKFKAKATLTVDKSSSTAYMQLKSLTSEDSAVYYCARRGGLTGTSFFAYWGQGTLVTVSA VL: DVVMTQTPLSLSVTIGQPASISCKSSQSLLYSNGKTYLNWLQQRPGQAPKHLMYQVSKLDPGIPDRFSGSGSETDFTLKISRVEAEDLGVYYCLQSTYYPLTFGAGTKLELKR", 9),
    ("M5B9 (antibody, V domains shown, Mouse monoclonal from hybridoma) VH: EVQLQQSGTVLARPGASVKMSCKASGYTFTGYWMHWVKQRPGQGLEWIGAIYPGNSDTNYNQKFKGKAKLTAVTSASTAYMELSSLTNEDAAVYHCTRSGDLTGGLAYWGQGTLVTVSA VL: DIVMTQAAFSNPVTLGTSASISCRSSKSLLHSNGITYLYWFLQKPGQSPQLLIYQMSNLASGVPDRFSSSGSGTDFTLRISRVEAEDVGVYYCAQNLELPYTFGSGTKLEIK", 77.3),
]

Now consider the entry below.
Quick one: give measured Inhibition of the binding of indicated biotin-Mab to sGPC3 core (%) for M10D2 (antibody, V domains shown, Mouse monoclonal from hybridoma) VH: QVQLQQPGAELVKPGASVKLSCKASGYTFTSYWMHWVKQRPGQGLEWIGEIDPSDSYTYYNQKFRGKATLTVDKSSNTAYMQLSSLTSEDSAVYYCSRSNLGDGHYRFPAFPYWGQGTLVTVSA VL: DIVLTQSPATLSVTPGDRVSLSCRASHSISNFLHWYPQKSHESPRLLIKYASQSISGIPSRFSGNGSGTDFTLSINSVETEDFGMYFCQQSNIWSLTFGAGTKLELK
-21.6
